- STUDY_TARGET: T1, His-tagged human HtrA1 protease domain (human, UniProt Q92743 161-367)
- T1 construct: His-tagged protease domain; also called huHtrA1-PD-His; huHtrA1-PD
- T1 sequence (Q92743 other isoform, or with tags, fused parts or gaps limits assumed): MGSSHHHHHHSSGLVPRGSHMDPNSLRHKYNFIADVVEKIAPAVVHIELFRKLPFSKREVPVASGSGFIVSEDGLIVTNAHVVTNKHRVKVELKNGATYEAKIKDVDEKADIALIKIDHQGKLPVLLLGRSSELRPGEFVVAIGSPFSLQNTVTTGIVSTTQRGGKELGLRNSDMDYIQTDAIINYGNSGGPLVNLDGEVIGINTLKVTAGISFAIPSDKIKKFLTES
- ASSAY_PROTOCOL: BIACORE SPR, single-cycle kinetics; Fab analyte over captured human HtrA1
EXPERIMENTAL_ENDPOINT: Kd (nM)

INSERT INTO measurements (binder, experimental_endpoint, measured_result) VALUES
  ('SG (Fab, V domains shown, single member of the group m42; also called h15H6.v2 HC-D55S HC-G56 Fab) VH: EVQLVQSGAEVKKPGASVKVSCKASGYTFTDSEMHWVRQAPGQGLEWIGGVDPETSGAAYNQKFKGRATITRDTSTSTAYLELSSLRSEDTAVYYCTRGYDYDYALDYWGQGTLVTVSS VL: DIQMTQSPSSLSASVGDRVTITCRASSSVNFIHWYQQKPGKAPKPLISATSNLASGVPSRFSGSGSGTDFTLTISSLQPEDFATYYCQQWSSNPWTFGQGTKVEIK', 'Kd', 0.78),
  ('AG (Fab, V domains shown, single member of the group m42; also called h15H6.v2 HC-D55A HC-G56 Fab) VH: EVQLVQSGAEVKKPGASVKVSCKASGYTFTDSEMHWVRQAPGQGLEWIGGVDPETAGAAYNQKFKGRATITRDTSTSTAYLELSSLRSEDTAVYYCTRGYDYDYALDYWGQGTLVTVSS VL: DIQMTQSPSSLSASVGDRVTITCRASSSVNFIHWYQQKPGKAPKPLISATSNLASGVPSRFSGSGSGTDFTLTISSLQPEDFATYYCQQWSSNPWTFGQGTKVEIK', 'Kd', 0.76);
